Numbers sourced from PubChem BioAssay (NCI).

Test system: MDA-MB-435 melanoma
Experiment: NCI-60 one-dose screen, 48 h (100 = growth as untreated, 0 = no growth, -100 = all killed)
Conditions: 10 µM
Protocol: Growth inhibition of the MDA-MB-435 human Melanoma tumor cell line is measured as a screen for anti-cancer activity. Cells are grown in 96 well plates and exposed to the test compound for 48 hours. Compounds are tested at a single concentration, which is 10^-5 M for most compounds. The reported endpoint is percent growth (GI% or GIPRCNT), where numbers from 0 - 100% represent growth inhibition, and numbers from -100% - 0 represent cell death. […]
About 83,000 compounds went through this panel and 20% of them were active in at least one assay; those are over-represented in the sample as a whole.
// reported growth for each item listed
Measured Parameter: growth (%)

O=C(c1ccccc1)C(Sc1ccccc1)c1ccccc1 (stereo unspecified)
107
O=C(C=P(c1ccccc1)(c1ccccc1)c1ccccc1)c1ccc(Br)cc1
106
Clc1cc(Cl)c(OCCCCCCN2CCNCC2)c(Cl)c1
10.5
CCCCn1c(=O)[nH]c2c(c1=O)C(c1ccc(Cl)cc1)c1c([nH]c(=O)n(CCCC)c1=O)N2
103
CCc1ccc(-c2nnc(COc3ccc(-c4nc5ccccc5[nH]4)cc3OC)o2)cc1
56.7
COc1cc(CSc2nc3ccc(Cl)cc3c(=O)n2Cc2ccccc2)cc(OC)c1OC
1.84
O=C(Nc1cccc(Cl)c1)Nc1cc2ncncc2cc1OCc1cccc(F)c1
0.458
CC(C)C(C)C(N)C(=O)O (stereo unspecified)
105
O=CNc1c(Cl)cc2c(c1Cl)Cc1cc([N+](=O)[O-])ccc1-2
2.37
O=C(NC1CCCC1)c1ccc(N2CCC(NCc3cccc(C(F)(F)F)c3)CC2)cc1
105
COC(=O)[C@]12CC[C@@H](C)[C@H](C)[C@@H]1C1=CC[C@@H]3[C@@]4(C)C[C@@H](O)[C@H](O)[C@@](C)(CO)[C@@H]4[C@H](O)C[C@@]3(C)[C@]1(C)CC2
-66.9
CCOC(=O)CNC(=O)Nc1ccc(Oc2ccc(NC(=O)NCC(=O)OCC)cc2)cc1
95.4
CCN(CC)CCn1c(=N)n(CC(O)c2ccc(Cl)c(Cl)c2)c2ccccc21 (stereo unspecified)
1.39
Brc1ccc(-c2cn3ccnc3c(-c3ccc(Br)cc3)n2)cc1
3.08
C#CCNCCCN1C(=O)c2ccc3c4c(ccc(c24)C1=O)C(=O)N(CCCNCC#C)C3=O
-66.9
Cc1nnc2c3nnc(-c4ccc(Cl)cc4)n3c3ccccc3n12
94.9
O=c1c2cccc3c(Nc4ccc(Br)cn4)ccc(c32)c2nc3ccccc3n12
97
CCc1ccc(-c2nnc(COc3ccc(-c4nc5cc(Cl)c(Cl)cc5[nH]4)cc3OC)o2)cc1
65.2
CC1(C)CC(=O)c2c(nc3ccc(Cl)cc3c2-c2ccccc2)C1
84.5
COc1ccc2nc(C)cc(Nc3ccc(Cl)cc3)c2c1
108
COc1ccc(-c2nc(NC(=O)CS(=O)(=O)c3ccc(F)cc3)sc2C)cc1
75
CCOC(=O)c1c(C(F)(F)F)n([O-])c2ccc(OC)cc2[n+]1=O
23.6
COc1ccc(-c2cn[nH]c2-c2cc(OC)c(OC)c(OC)c2)cc1
-19
CCCCOCCOCCOCc1cc2c(cc1Br)OCO2
108
CC(C)=C1CCC(C)C/C1=N\N=C(N)N (stereo unspecified)
101
COCc1cc2c(cc1Br)OCO2
108
CS(=O)(=O)Nc1ccc(Nc2c3ccccc3nc3cc(Cl)ccc23)cc1
54.1
COc1ccc(Nc2ccnc(N3CCN(c4ccnc5cc(Cl)ccc45)CC3)n2)cc1
-4.38
Cc1ccc([P+](Cc2ccccc2)(c2ccccc2)c2ccccc2)cc1
2.32
CC(=O)N(O)c1ccc(/C=C/c2ccccc2)cc1
55.1
CCCCC(=O)N(c1ccc(Nc2c3ccccc3nc3cc([N+](=O)[O-])ccc23)cc1)S(C)(=O)=O
96.8
C=C1C(=O)O[C@H]2[C@H]1CC/C(COC(=O)OCCCCCOC(=O)OC/C1=C/CC[C@@]3(C)O[C@H]3[C@H]3OC(=O)C(=C)[C@@H]3CC1)=C\CC[C@@]1(C)O[C@@H]21
-13
COc1ccc(N2CCN(c3nc(-c4ccccc4)c(C#N)c(=O)[nH]3)CC2)cc1
111
COc1c(C)c(C)c(OC)c2c1[nH]c(=O)c1c3cccnc3cn21
110
Fc1cc(-c2ncc(-c3cc(F)c(F)c(F)c3)c(NC3CCCCCC3)n2)cc(F)c1F
96.8
COc1cc(Cn2c(-c3ccccc3)c(Cl)c3c2-c2oncc2CC3)cc(OC)c1
-0.829
CC(=O)Oc1ccc(C2=Cc3ccc(OC(C)=O)cc3OC2C)cc1 (stereo unspecified)
25.2
COCCNCC(O)Cn1c2ccc(Cl)cc2c2cc(Cl)ccc21 (stereo unspecified)
-83.1
CCOC(=O)Nc1ccc2c(c1)C(=O)N(CCOC)c1ccccc1O2
-14.2
CC1(C)CC(OCCCC[P+](c2ccccc2)(c2ccccc2)c2ccccc2)CC(C)(C)N1O
-57.9
Cc1cc2cc3c(=O)[nH]c(=O)cc-3n(CC(O)C(O)C(O)CO)c2cc1C (stereo unspecified)
104
